# Test system: EKVX
# assay.details: relative viability (nuclei count vs DMSO), 5 days (fraction); higher = more cells survive
# measurement.parameters: first compound 0.1581 µM
measurement.kind: relative viability

[
  {
    "compound": "CC1(C)CCC(c2ccc(Cl)cc2)=C(CN2CCN(c3ccc(C(=O)NS(=O)(=O)c4ccc(N[C@H](CCN5CCOCC5)CSc5ccccc5)c(S(=O)(=O)C(F)(F)F)c4)cc3)CC2)C1 [Navitoclax] + CC(=O)Nc1cccc(-n2c(=O)n(C3CC3)c(=O)c3c(Nc4ccc(I)cc4F)n(C)c(=O)c(C)c32)c1 [Trametinib] (partner 0.02 µM)",
    "recorded.value": 0.376
  },
  {
    "compound": "CC1(C)CCC(c2ccc(Cl)cc2)=C(CN2CCN(c3ccc(C(=O)NS(=O)(=O)c4ccc(N[C@H](CCN5CCOCC5)CSc5ccccc5)c(S(=O)(=O)C(F)(F)F)c4)cc3)CC2)C1 [Navitoclax] + Cc1nc(Nc2ncc(C(=O)Nc3c(C)cccc3Cl)s2)cc(N2CCN(CCO)CC2)n1 [Dasatinib] (partner 0.075 µM)",
    "recorded.value": 0.692
  }
]
